test system: SNB-75; test: NCI tumour cell line growth inhibition, 48 h
Activity calls are given as the source filed them. Cut-off read from the data, not from the text of the source: active = GI50 up to about 1.1 µM and inactive = higher.
# GI50 per record follows
metric.name: GI50

- Cc1ccc(C2c3c(n(C)c(=O)n(C)c3=O)OC(N(C)C)(N(C)C)C2(F)F)cc1 (centres undefined): > 100 µM (inactive)
- Cc1nc2sc3cccc(Cl)c3n2c(=O)c1/N=N/c1ccc(Cl)cc1: 85.3 µM (inactive)
- Cc1ccc(/C=C2\N=C(N3CCCC(CO)C3)NC2=O)cc1 (centres undefined): > 100 µM (inactive)
- NS(=O)(=O)c1ccc(/C=C/c2cccc(O)c2)cc1: 46.8 µM (inactive)
- CC1CN(c2cc3c(cc2F)c(=O)c(C(=O)O)cn3-c2ccc(F)cn2)CC(C)N1 (centres undefined): > 100 µM (inactive)
- CN(/N=C/c1cccc2cccnc12)c1ccc(Cl)cc1[N+](=O)[O-]: > 100 µM (inactive)
- Sc1nc(S)nc(Oc2ccc(Cl)c(Cl)c2)n1: 30.3 µM (inactive)
- CC(=O)OCCOCNC(=S)N/N=C(\C)c1cnc2ccccc2n1: 52.7 µM (inactive)
- C/C(=N/NC(N)=S)C(CN1CCOCC1)C(C1=C(O)c2ccccc2OC1)c1ccccc1 (centres undefined): 78 µM (inactive)

---

system: A549; experiment: NCI tumour cell line growth inhibition, 48 h
Activity calls are given as the source filed them. Cut-off read from the data, not from the text of the source: active = GI50 up to about 1.1 µM and inactive = higher.
Outcome codes: yes for active, no for inactive

* Cc1ccccc1OC(C)C(=O)NN1C(=O)CC(=O)N(c2ccccc2)C1=S (configuration not stated) | no
* CCCNC(=O)c1cc(NC(=O)c2cc(NC(=O)CCS(=O)(=O)OC)cn2C)cn1C | no
* O=C(O)C(Cc1ccc2c(c1)CCC2)(Cc1ccc2c(c1)CCC2)C(=O)O | no
* O=C1C2Nc3ccccc3SC2C(=O)N1c1ccccc1C(F)(F)F (configuration not stated) | no
* O=S(=O)(Nc1ccc2ccc3cccc4ccc1c2c34)c1ccccc1 | no
* O=C1COCCN1C(=O)c1ccccc1Cl | no
* Cc1ccc(S(=O)(=O)NC(=O)N[C@@H](Cc2c[nH]cn2)C(=O)O)cc1 | no
* COc1cc(Cc2cc(OC)c(OC)c(OC)c2)ccc1O | no
* Cc1ccc(C(=O)/C=C2/Nc3ccccc3NC2=O)c(C)c1 | no
* CC[C@@H](C)[C@H](NC(=O)[C@H](Cc1ccccc1)NCC(F)(F)F)C(=O)OC(C)(C)C | no
* NCC(=O)N1CCN(c2nc(N3CCCC3)c3nc(Cl)c(NCc4ccccc4)nc3n2)CC1 | no
* Cc1ccc2c(c1)C=CC1(O2)N(c2ccccc2)C(=S)OC1(C)C (configuration not stated) | no
* CC(=O)O[C@H](C[C@@H](C)[C@H]1C(=O)[C@H](O)[C@@]2(C)C3CC[C@H]4C(C)(C)[C@@H](OC5OCC(O)C(O)C5O)CC[C@@]45C[C@@]35CC[C@]12C)[C@@H]1OC1(C)C (some centres not stated) | no
* CCc1cccc(CC)c1NC(=O)C(C#N)C1=C(Cl)C(=O)c2ccccc2C1=O (configuration not stated) | no
* CCN(CC)CCC(=O)O[C@H]1CC[C@H](CC(C)[C@H]2CC(=O)C(C)C=C(C)[C@H](OC(=O)CCN(CC)CC)C(OC)C(=O)[C@@H](C)CC(C)/C=C/C=C/C=C(C)C(OC)CC3CC[C@H](C)[C@](O)(O3)C(=O)C(=O)N3CCCCC3C(=O)O2)CC1OC (some centres not stated) | yes
* O=C(N/N=C\c1ccc2ccccc2c1)Nc1ccc([N+](=O)[O-])cc1 | no
* S=C(N/N=C/c1ccccc1)NC12CC3CC(CC(C3)C1)C2 | no
* O=c1cc2ccccc2nn1Cc1ccccc1Cl | no
* CC1(C)OC(=O)C(C#N)=C1/C=C/c1coc2ccc(Cl)cc2c1=O | no
* COC(=O)C1=C(OC)c2cc3c(cc2C(c2cc(OC)c(OC)c(OC)c2)C1C(=O)OC)OCO3 (configuration not stated) | no
* CC(=O)N1NC(c2ccccc2)=CC(=O)/C1=C/C(=O)c1ccccc1 | no
* COc1c2ccsc2c(OC)c2ccsc12 | no

---

GI50 listing for selected compounds.
system: MDA-MB-231; test: NCI tumour cell line growth inhibition, 48 h
Activity calls are given as the source filed them. No stated cut-off is given here; in the data, active = GI50 up to about 1.1 µM and inactive = higher. Non-standard residues stand in square brackets, D forms with d. Residues, ends and D or L forms follow the SMILES beside them. *: point of attachment. Ac5c = NC1(C(=O)O)CCCC1; Boc = CC(C)(C)OC(=O)*; tBu = CC(C)(C)*
metric.name: GI50

* Cn1ccc(C(=O)NCCOCCNC(=O)c2ccn(C)c(=O)c2O)c(O)c1=O | > 100 µM (inactive)
* CCCn1c(=O)c2ccccc2[n+]2c(-c3ccc([N+](=O)[O-])cc3)csc12 | 33.7 µM (inactive)
* CCCC(=O)Nc1cn(COC)c(C(=O)N2C[C@H]3C[C@@]34C2=CC(=O)c2[nH]cc(C)c24)n1 | 13.1 µM (inactive)
* CC#Cc1cc2c(cc1O)CC[C@@H]1[C@@H]2CC[C@]2(C)[C@@H](O)CC[C@@H]12 | 8.18 µM (inactive)
* Cn1c2ccccc2c(=NNc2cccc(C(=O)O)c2)c2ccccc21 | 11 µM (inactive)
* COc1ccc(N2C(=O)C3c4[nH]c5ccccc5c4C4CCC(C(C)C)CC4C3C2=O)cc1 (stereo not given) | > 100 µM (inactive)
* CCOC(=O)c1cn2c(n1)sc1cc(Cl)ccc12 | > 100 µM (inactive)
* CC(OC(C)(C)C)C1NC(=O)C(CCCCNC(=O)OC(C)(C)C)NC(=O)C(Cc2c[nH]c3ccccc23)NC(=O)C(Cc2ccccc2)NC(=O)C2(CCCC2)NC(=O)C(Cc2ccccc2)NC1=O (stereo not given) (cyclo([Ac5c]FWK(Boc)T(tBu)F); configuration not given here) | 17.5 µM (inactive)
* CC1(C)OC(=O)C2(O1)C(=O)C1CCCCC12 (stereo not given) | 3.84 µM (inactive)
* Cc1ccc(C)c(COCCOCn2c(=O)[nH]c(=O)c3cc(Br)ccc32)c1 | 66.4 µM (inactive)

---

test system: HL-60; experiment: NCI tumour cell line growth inhibition, 48 h
The source made the active and inactive calls. Rule as the data show it: active = GI50 up to about 1.1 µM and inactive = higher.
Labels: active, inactive

• CCC(CC)(CO)CNc1cc(Cl)nc(N)n1 = inactive
• CCc1ccc(NCc2cc(OC)c(OC)c(OC)c2)cc1 = active
• O=C1c2ccccc2CCCCCCCCCCC12OCCCO2 = inactive
• CC1(C)O[C@H]2OC(CO)C(N=[N+]=[N-])[C@H]2O1 (some centres undefined) = inactive
• O=S(=O)(O)c1ccc(NN(c2c(O)ccc3ccccc23)S(=O)(=O)O)cc1 = inactive
• COC(=N)c1csc(C2OC(CO)C(O)C2O)n1 (centres undefined) = inactive
• O=C(O)c1cc(O)nc(S)n1 = inactive
• O=c1[nH]nc(Cc2ccc(Cl)cc2)n1/N=C/c1c[nH]c2ccccc12 = inactive
• Sc1nc(S)nc(Oc2ccc(Cl)c(Cl)c2)n1 = inactive
• O=c1[nH]c(=O)n2n1C1C=CC2CC1 = inactive
• Cc1ccc(S(=O)(=O)N/C(=C\C=C\c2ccccc2)C(=O)C(C)(C)C)cc1 = inactive
• CC(=O)C(CN(C)C)C(c1ccccc1)c1c(O)c2ccccc2oc1=O (centres undefined) = inactive
• N=C(N)NS(=O)(=O)c1ccc(NNc2c3ccccc3nc3c(C(=O)Nc4ccc(S(N)(=O)=O)cc4)cccc23)cc1 = inactive
• COC(=O)/C=C1\CCC2[C@@H](C(=O)CC3[C@]2(C)CCC[C@@]3(C)C(=O)OC)C1C (some centres undefined) = inactive

---

test system: A498; assay: NCI tumour cell line growth inhibition, 48 h
Active and inactive are the calls of the source. No stated cut-off is given here; in the data, active = GI50 up to about 1.1 µM and inactive = higher. Where a SMILES comes first, the peptide text is derived from it. [ ]: non-standard residue; d: D form. Phe(4-Cl) = N[CH](Cc1ccc(Cl)cc1)C(=O)O
metric.name: GI50

* CC1=C/C(O)CC(=O)Cc2nc(co2)C(=O)N2CCC=C2C(=O)OC(C(C)C)C(C)/C=C\C(=O)NC/C=C\1 (configuration not stated) | 23.6 µM (inactive)
* CC(C)Cc1ccc(C(C)C(=O)N2CCN(/C=C/c3ccccc3)CC2)cc1 (configuration not stated) | 16.4 µM (inactive)
* CC(=O)N1C(C(=O)NN2CCOCC2)CSC1c1ccccc1 (configuration not stated) | > 100 µM (inactive)
* O=C1c2cccnc2C(=O)c2c1nc1ccccc1c2-c1ccc2c3c(nc4ccccc42)C(=O)c2cccnc2-c13 | 2.69 µM (inactive)
* Nc1nc(NCC2(CO)CCC2)cc(=O)[nH]1 | > 100 µM (inactive)
* C/C(=N\NC(=S)Nc1ccc([N+](=O)[O-])cc1S(=O)(=O)O)c1ccccn1 | 36.7 µM (inactive)
* COC(=O)C1(F)C(=O)NC(=O)NC1OC (configuration not stated) | > 100 µM (inactive)
* Cc1ccc(C2c3c(n(C)c(=O)n(C)c3=O)OC(N(C)C)(N(C)C)C2(F)F)cc1 (configuration not stated) | > 100 µM (inactive)
* CC(O)C(NC(=O)C(Cc1ccccc1)NC(=O)C(NC(=O)C(CCCCN)NC(=O)C(Cc1c[nH]c2ccccc12)NC(=O)C(Cc1ccc(O)cc1)NC(=O)C(Cc1ccc(Cl)cc1)NC(=O)C(N)Cc1ccccc1)C(C)O)C(N)=O (configuration not stated) (H-F[Phe(4-Cl)]YWKTFT-NH2; configuration not given here) | 18.8 µM (inactive)
* Cc1c(-c2ccccc2)n[nH]c1NC1(C)C(=O)N(/N=C/c2ccccc2)N=C1c1ccccc1 (configuration not stated) | > 83.4 µM (inactive)
* COC12C=CC(CC1)C(C)(C)C2=O (configuration not stated) | > 100 µM (inactive)
* COc1ccc(/C=C2/SC(c3ccc(Cl)cc3)N(NC(=O)CCCCCCCCC(=O)NN3C(=O)/C(=C\c4ccc(OC)c(OC)c4)SC3c3ccc(Cl)cc3)C2=O)cc1OC (configuration not stated) | 24.4 µM (inactive)
